These data points were gathered from patent US20220396620A1.

measurement.target: human cannabinoid receptor type 1 (CB1) (human, UniProt P21554 1-472)
Sequence (P21554 whole entry): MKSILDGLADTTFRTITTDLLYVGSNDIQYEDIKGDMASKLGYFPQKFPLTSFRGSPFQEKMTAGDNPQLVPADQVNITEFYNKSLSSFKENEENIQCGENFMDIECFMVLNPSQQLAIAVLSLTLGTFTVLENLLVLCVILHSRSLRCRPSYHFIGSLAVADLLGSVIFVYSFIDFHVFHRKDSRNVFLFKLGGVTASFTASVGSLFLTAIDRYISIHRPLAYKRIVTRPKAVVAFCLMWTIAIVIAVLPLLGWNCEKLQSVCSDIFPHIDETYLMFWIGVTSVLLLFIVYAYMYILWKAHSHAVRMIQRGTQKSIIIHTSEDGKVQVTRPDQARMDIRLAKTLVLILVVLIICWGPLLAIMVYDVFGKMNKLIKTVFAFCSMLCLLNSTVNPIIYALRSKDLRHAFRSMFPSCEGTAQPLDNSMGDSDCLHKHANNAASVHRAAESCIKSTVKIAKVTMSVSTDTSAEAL
protocol.details: cell-based or functional assay
Catalogue of binders with associated cAMP EC50 (nM) Data Set 1
# output: bare number, implied unit nM

# annotated cases, reported cAMP EC50 (nM) Data Set 1 shown
Consider the binder M6 mouse anti-huCB-1 antibody (antibody, V domains shown) VH: EVQLQQSGPELVKPGASVKISCKASGYTFTDYNLHWVKHGKSLEWIGYIYPYDGDTGYKQKFKGKATLTADKSSSTAYMELRSLTCEDSAVYYCARGYGNSWGAYWGQGTLVTVSA VL: EIVLTQSPTTMAASPGEKITITCSATSSISSNYLHWYQQKPGFSPKLLIYRTSNLASGVPARFSGSGSGTSYSLTIGTMEAEDVATYYCQQGSSIPYTFGGGTKLEIK . State its measured cAMP EC50 (nM) Data Set 1. 310

Consider the binder M1 mouse anti-huCB-1 antibody (antibody, V domains shown) VH: QVQLQQSGAELVRPGVSVKISCKGSGYTFTDHALHWVKQSQARSLEWIGIISTYYGDATYNQKFKGKATMTVDKSSSTAYMELARLTSEDSAFYYCARGGLYYGTNYRAMDYWGQGTSVTVSS VL: DIVMTQSQKFMSTSVGDRVSVTCKASQNVGSNVAWYQQKPGQSPKALIYSASYRYSGVPDRFTGSGSGTDFTLTISNVQSEDLAEYFCQQYNNYPFTFGSGTKLEIK . State its measured cAMP EC50 (nM) Data Set 1. 43

Consider the binder M4 mouse anti-huCB-1 antibody (antibody, V domains shown) VH: QVQLQQSGAELVRPGSSVKISCKASGYEFNYYWMNWVKQRPGQGLEWIGQIYPGDGDINYNGKFKGKATLTSDKSSSTVYMQLSSLTSEDSAVYFCSRSKGNPFAYWGQGTLVTVSA VL: DIQMTQTTSSLSASLGDSVTISCRASQGIRNYLNWYQQKPDGTVKLLIYYTSRLHSGVPPRFSGSGSGTDYSLTISNLEQEDLATYFCQQGNTLPYTFGGGTKLEIK . State its measured cAMP EC50 (nM) Data Set 1. 180

Consider the binder M7 mouse anti-huCB-1 antibody (antibody, V domains shown) VH: EVQLQQPGAELVRPGASVKLSCKASSYTFTRYWMNWVKQRPEEGLEWIGMIDPYDSETHYNQKFKDKAILTVDKSSSTAYMQLSTLTSEDSAVYFCARSQPRYYAMDYWGQGTSVTVSS VL: DIQMSQSPSSLSASLGERVSLTCRASQEISGFLSWLQLRPDGTIKRLIYAASSLDSGVPKRFRGSWSGSDYSLTISSLESEDFADYYCLQYSSYPYTFGGGTKLEIK . State its measured cAMP EC50 (nM) Data Set 1. 78

Next:
Consider the binder M2 mouse anti-huCB-1 antibody (antibody, V domains shown) VH: EVQLQQSGPELVKPGTSVKISCKASGYTFTDYNMHWVKLGKSLEWIGYFYPDDGGSGYNQKFKGKATLTIDKSSSTAYMELHSLTSEDSAVYYCARGYGNSWGTYWGQGTLVTVSA VL: EIVLTQSPTTMAASPGEKITITCSASSRISSNYLYWYQQKPGFSPKLLIYRTSNLASGVPARFSGSGSGTSYSLTIGTMEAEDVATYYCQQGSSIPYTFGGGTKLEIK . State its measured cAMP EC50 (nM) Data Set 1. 380
